Data provenance is ChEMBL document CHEMBL1154322.

# MEASUREMENT_DESCRIPTION: Antiproliferative activity against BAEC after 72 hrs by MTT assay
# Type: functional, Bos taurus
# ASSAY_CONTEXT: Bos taurus, BAEC, 72 h
QUANTITY_NAME: pIC50
Give bare numbers, as −log10 of the molar value.

# input For the molecule N[C@@H](CCC(=O)N[C@@H](CSCC(=O)Nc1ccc([As](O)O)cc1)C(=O)NCC(=O)O)C(=O)O , what pIC50 is on record?
# output 5.00

###

# MEASUREMENT_DESCRIPTION: Antiproliferative activity against BAEC after 72 hrs by MTT assay in presence of 3 uM MRP1/2 inhibitor Reversan and 20 uM gamma-glutamyl cysteine synthase inhibitor buthionine sulfoximine
# Type: functional, cell-based
# ASSAY_CONTEXT: Bos taurus
QUANTITY_NAME: IC50 (nM)
Numbers only, in nM.

# input For the molecule CC(C)(SCC(=O)Nc1ccc([As](O)O)cc1)[C@@H](N)C(=O)O , what IC50 is on record?
# output 20
